Target: Sko1 (UniProt Q02100)
Sequence: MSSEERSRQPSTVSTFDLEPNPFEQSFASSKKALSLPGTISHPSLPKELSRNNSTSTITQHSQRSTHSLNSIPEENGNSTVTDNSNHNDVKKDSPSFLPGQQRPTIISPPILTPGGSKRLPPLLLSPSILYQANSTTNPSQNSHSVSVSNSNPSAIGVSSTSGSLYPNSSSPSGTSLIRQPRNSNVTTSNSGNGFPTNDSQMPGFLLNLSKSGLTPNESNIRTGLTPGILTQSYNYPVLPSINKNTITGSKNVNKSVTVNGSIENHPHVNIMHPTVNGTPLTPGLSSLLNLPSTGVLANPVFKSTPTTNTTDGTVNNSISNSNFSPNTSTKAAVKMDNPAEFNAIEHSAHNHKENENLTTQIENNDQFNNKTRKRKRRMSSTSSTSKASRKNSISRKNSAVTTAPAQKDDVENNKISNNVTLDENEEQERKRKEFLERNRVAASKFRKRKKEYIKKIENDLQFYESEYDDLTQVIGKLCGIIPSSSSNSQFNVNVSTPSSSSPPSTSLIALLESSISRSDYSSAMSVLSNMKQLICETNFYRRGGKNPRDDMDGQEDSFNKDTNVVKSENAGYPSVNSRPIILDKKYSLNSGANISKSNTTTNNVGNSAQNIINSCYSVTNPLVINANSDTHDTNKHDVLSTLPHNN
Assay: PBM E-score (8-mer binding enrichment) (E-score (-0.5 to 0.5)); higher = stronger / more preferred TF binding
Conditions: protein concentration: 200 nM; construct: GST-full length
Whole data set: some 33,000 sequences, median “E-score (-0.5 to 0.5)” near -0.032, cut for the highest 2% near 0.36. For the sample, the highest values were picked, then their nearest neighbours and some sequences at random.
Binning rule for recorded PBM E-score: lower segment (below -0.07), middle segment (-0.07 to below 0.1), upper segment (0.1 or more)

Completed entries (count: 8):
Q: Tag the class for CCACCAAG
Result: lower segment

Q: Repeat with ACGCGGCT
Result: upper segment

Q: Repeat with AGATTTGA
Result: upper segment

Q: Repeat with CCGTAGCG
Result: lower segment

Q: Repeat with ACGAGACT
Result: middle segment

Q: Repeat with GCTAAGCC
Result: lower segment

Q: Repeat with CCGTACCG
Result: lower segment

Q: Repeat with ACCAACTG
Result: middle segment

Shift focus to the following entry.
Q: Tag the class for AGAATACG
Result: upper segment
